assay: qHTS assay for MDR1-selective chemotherapeutics: Primary screen using the parental adenocarcinoma cell KB-3-1; conditions: KB-3-1 viability, CellTiter-Glo ATP luminescence, 72 h; series mostly up to 46.1 µM; also: nearly all actives have a fitted effect of over 60% in size
About 5,500 (1.4%) of roughly 400,000 compounds were called active. Another 9% or so got no clear call; they are omitted. Calls follow the shape of the dose curve; as a rule, active = well fitted cell-killing curve with a large enough effect; inconclusive = small, poorly fitted or top-dose-only effect, or effect the other way; inactive = flat fitted curve, though single readings scatter. The sample as a whole holds a higher share of actives than the screen did.
Classes used: true for active, false for inactive

{"structureNotation": "COc1ccc(C(F)(F)F)cc1NC(=O)c1sc2nc(-c3cccs3)ccc2c1N", "classAssignment": "false"}
{"structureNotation": "C=CCn1nc(C(=O)OCC)cc1-c1sc(NC(=O)c2ccccc2)nc1C", "classAssignment": "false"}
{"structureNotation": "CCOC(=O)c1cc(-c2sc(NC(=O)c3ccccc3)nc2C)n(CCO)n1", "classAssignment": "false"}
{"structureNotation": "CCOC(=O)c1cc(-c2sc(NC(=O)c3ccccc3)nc2C)n(Cc2ccccc2)n1", "classAssignment": "true"}
{"structureNotation": "CCN(CC)C(=O)CSc1nnc(CNc2ccc(F)cc2)n1Cc1ccco1", "classAssignment": "false"}
{"structureNotation": "COc1cc2ccccc2cc1C(=O)Nc1cccc(-c2nc3ccccc3o2)c1", "classAssignment": "false"}
{"structureNotation": "CCCCOc1ccc(NC(=O)c2cc3c(n(-c4ccc(Cl)cc4)c2=O)CCCC3=O)cc1", "classAssignment": "false"}
{"structureNotation": "CCc1ccccc1OCC(=O)Nc1ccc(C)c(S(=O)(=O)N2CCCCCC2)c1", "classAssignment": "true"}
{"structureNotation": "C=C1C=C(C(F)F)n2ncc(C(=O)NCCc3ccccc3OC)c2N1", "classAssignment": "false"}
{"structureNotation": "Cc1cccc2c1-c1sc(C(=O)Nc3ccc(F)cc3F)cc1CO2", "classAssignment": "false"}

----------
assay: qHTS assay for MDR1-selective chemotherapeutics: Primary screen using the parental adenocarcinoma cell KB-3-1; conditions: KB-3-1 viability, CellTiter-Glo ATP luminescence, 72 h; series mostly up to 46.1 µM; also: nearly all actives have a fitted effect of over 60% in size
The whole screen tested about 400,000 compounds, of which about 5,500 (1.4%) were called active. Another 9% or so got no clear call; they are omitted. Calls come from the whole dose curve; as a rule, active = well fitted cell-killing curve with a large enough effect; inconclusive = small, poorly fitted or top-dose-only effect, or effect the other way; inactive = flat fitted curve, though single readings scatter. Many of the other results were omitted from the sample, so actives are more common in it than they were.
Classes used: t for active, f for inactive

{"structureNotation": "CCN(CC)CCNc1ccc(Cl)cc1[N+](=O)[O-]", "classAssignment": "f"}
{"structureNotation": "CCn1c(=O)c2cc(C(=O)NCCc3ccc(Cl)cc3)sc2c2ccccc21", "classAssignment": "f"}
{"structureNotation": "Cc1cccc(NC(=S)N2CCC(C(=O)c3ccc(F)cc3)CC2)c1", "classAssignment": "f"}
{"structureNotation": "O=C(Nc1cccc(S(=O)(=O)Nc2ccc(Cl)cc2)c1)c1ccc2c(c1)OCCO2", "classAssignment": "t"}
{"structureNotation": "COc1cc(OC)c(NC(=O)c2nc(-c3ccncc3)no2)cc1Cl", "classAssignment": "f"}
{"structureNotation": "CCc1cccc(NC(=O)CN(C)S(=O)(=O)c2ccc3[nH]c4c(c3c2)CCCC4)c1", "classAssignment": "f"}
{"structureNotation": "Cc1cccc(-n2ccnc2SCC(=O)Nc2cc(C(F)(F)F)ccc2Cl)c1", "classAssignment": "f"}

----------
experiment: qHTS assay for MDR1-selective chemotherapeutics: Primary screen using the parental adenocarcinoma cell KB-3-1; conditions: KB-3-1 viability, CellTiter-Glo ATP luminescence, 72 h; series mostly up to 46.1 µM; also: nearly all actives have a fitted effect of over 60% in size
Out of some 400,000 compounds screened, about 5,500 (1.4%) were called active. Not shown: some 9% with an inconclusive outcome. The call rests on the fitted dose curve; in most records, active means well fitted cell-killing curve with a large enough effect; inconclusive means small, poorly fitted or top-dose-only effect, or effect the other way; inactive means flat fitted curve, though single readings scatter. This excerpt belongs to a sample that is enriched for actives.
Classes used: class 1 (active), class 0 (inactive)

{"compound": "COc1ccc(C2=Nn3c(nnc3-c3ccccc3OC)SC2)cc1OC1CCCC1", "classAssignment": "class 1"}
{"compound": "C/C(=N/NC(=O)CCc1ccccc1)c1ccco1", "classAssignment": "class 0"}
{"compound": "CC(=O)Nc1cccc(-c2ccnc3c2CC(C)(C(=O)NCc2ccccc2)O3)c1 (stereo not drawn)", "classAssignment": "class 1"}
{"compound": "COc1ccc(CCNC(=O)COC(=O)c2cc(=O)c3ccccc3o2)cc1", "classAssignment": "class 0"}
{"compound": "COc1ccc(NC(=O)COC(=O)C2COc3ccccc3O2)cc1 (stereo not drawn)", "classAssignment": "class 0"}
{"compound": "Cc1ccc2c(c1)-c1c(cnn1CC(=O)Nc1ccccc1C#N)CO2", "classAssignment": "class 0"}
{"compound": "NC(=O)Nc1ccc(C(=O)OCC(=O)NC2CCCc3ccccc32)cc1 (stereo not drawn)", "classAssignment": "class 0"}
{"compound": "CS(=O)(=O)N(CC(=O)NCc1ccco1)c1ccc2c(c1)OCO2", "classAssignment": "class 0"}
{"compound": "Cc1nnc2n1N=C(c1ccc3c(c1)NC(=O)CO3)CS2", "classAssignment": "class 0"}
{"compound": "CC1(C(=O)NCc2ccco2)Cc2c(-c3ccc4c(c3)OCO4)ccnc2O1 (stereo not drawn)", "classAssignment": "class 1"}
{"compound": "COc1ccc(Nc2cc(=O)oc3ccccc23)cc1", "classAssignment": "class 1"}
{"compound": "CC(=O)c1ccc(NC(=O)COc2ccccc2-c2nc(-c3ccccc3)no2)cc1", "classAssignment": "class 0"}
{"compound": "CC1=NNC(=O)C1CCC(=O)N/N=C\\c1ccc(Cl)c(Cl)c1 (stereo not drawn)", "classAssignment": "class 0"}

----------
assay: qHTS assay for MDR1-selective chemotherapeutics: Primary screen using the parental adenocarcinoma cell KB-3-1; settings: KB-3-1 viability, CellTiter-Glo ATP luminescence, 72 h; series mostly up to 46.1 µM; also: nearly all actives have a fitted effect of over 60% in size; also: potency is read from the fitted curve at half-maximal effect
Hit rate of the full screen: of about 400,000 compounds, about 5,500 (1.4%) were called active. Roughly 9% stayed inconclusive and do not appear here. The full list was thinned out, with actives kept by preference.

{"compound": "Cc1oc2ncnc(N3CCCCC3)c2c1C(=O)N1CCN(c2cccc(Cl)c2)CC1", "Potency": "inactive"}
{"compound": "Cc1cccnc1NC(=O)c1cccc(S(=O)(=O)N2CCN(c3ccc(F)cc3)CC2)c1", "Potency": "20.6 µM (active)"}
{"compound": "N#Cc1nc(NCc2ccc(Cl)c(Cl)c2)c2ncn(CCCO)c2n1", "Potency": "inactive"}
{"compound": "COc1ccccc1Nc1nc(N)nc(N)c1S(=O)(=O)c1ccccc1", "Potency": "inactive"}
{"compound": "Cc1ccc2c(c1)c1c(c(=O)n(-c3ccccc3)c(=O)n1CC(=O)c1ccc(Cl)cc1)n2C", "Potency": "inactive"}
{"compound": "CCn1c2c(c(=O)n3ncc(C(=O)N4CCN(c5ccccc5)CC4)c13)CN(Cc1ccc(OC)cc1)CC2", "Potency": "inactive"}
{"compound": "Cc1ccc(CN2CCC(CNC(=O)c3cnn(-c4ccc(C)cc4)c3C3CCN(C(=O)OC(C)(C)C)CC3)CC2)cc1", "Potency": "16.4 µM (active)"}
{"compound": "O=C(CCS(=O)(=O)c1cc(Br)cc2c1N(C(=O)C1CC1)CC2)Nc1ccc(C(F)(F)F)cc1", "Potency": "inactive"}
{"compound": "CCOc1ccccc1NC(=O)Cn1nnc(C(=O)NCc2cccs2)c1N", "Potency": "0.259 µM (active)"}
{"compound": "CCOc1[nH]n(-c2ccc(Cl)cc2)c(=O)c1C=Nc1ccc(O)cc1", "Potency": "18.4 µM (active)"}
{"compound": "Cc1ccc(C(=O)Nc2ncccc2C)cc1S(=O)(=O)N1CCOCC1", "Potency": "inactive"}
{"compound": "CCC(=C/c1sc2ccc3ccccc3c2[n+]1C)/C=C1\\Sc2ccc3ccccc3c2N1C", "Potency": "9.2 µM (active)"}
{"compound": "COc1ccccc1CNC(=O)CCCCn1c(=O)c2ccccc2n(CC(=O)Nc2cc(Cl)ccc2C)c1=O", "Potency": "inactive"}
{"compound": "Cc1ccc(CN2CCC(CNC(=O)c3cnn(-c4ccccc4Cl)c3C3CCN(C(=O)OC(C)(C)C)CC3)CC2)cc1", "Potency": "inactive"}
{"compound": "CN(C)c1ccc(/C=C/c2sc3ccccc3[n+]2C)cc1", "Potency": "6.51 µM (active)"}
{"compound": "CCOc1ccccc1NC(=O)Cn1nnc(C(=O)Nc2ccc(C)c(C)c2)c1N", "Potency": "inactive"}
{"compound": "COCCn1c(CCC(=O)Nc2cc(C)ccc2C)nc2cccnc21", "Potency": "inactive"}
{"compound": "CCOC(=O)c1cc(-c2ccc(OC)c(S(=O)(=O)Nc3ccc(OC)cc3OC)c2)on1", "Potency": "inactive"}
{"compound": "C=CC(=O)OCCOCCOCCOCCOC(=O)C=C", "Potency": "10.3 µM (active)"}
{"compound": "Cn1nc(C(F)(F)F)c(C(=O)Nc2cccc(C(F)(F)F)c2)c1SCc1ccc(Cl)cc1", "Potency": "16.4 µM (active)"}
{"compound": "CN(C)c1ccc(/C=C/c2sc3ccccc3[n+]2CCCCBr)cc1", "Potency": "1.3 µM (active)"}
{"compound": "COc1ccc(C2CC(=O)Nc3c2c(=O)nc2c(C)cccn32)cc1OC (stereo not drawn)", "Potency": "inactive"}
{"compound": "COc1cc(OC)c(OC)cc1/C=C/c1nc2ccccc2c(=O)n1-c1ccc(Br)c(C)c1", "Potency": "inactive"}
{"compound": "Cc1ccc(OCCn2c(CNc3ccccc3C)nc3ccccc32)cc1", "Potency": "inactive"}
{"compound": "CCOC(=O)c1c(C)[nH]c(C)c1C(=O)COC(=O)/C=C/c1cccc([N+](=O)[O-])c1", "Potency": "inactive"}
{"compound": "O=C(Nc1ccc2c(c1)CCC2)c1cccc(S(=O)(=O)N2CCN(c3ccc(F)cc3)CC2)c1", "Potency": "inactive"}
{"compound": "Nc1ccccc1N", "Potency": "inactive"}
{"compound": "CN(C)c1ccc(CSc2ccccc2)cc1", "Potency": "inactive"}

Data credit: PubChem BioAssay AID1347075
